Data origin, for the record: PubChem BioAssay (NCI)

System: BT-549 breast
Test: NCI-60 one-dose screen, 48 h (100 = growth as untreated, 0 = no growth, -100 = all killed)
Conditions: 10 µM unless noted
This is part of a sample that, as a whole, favours compounds with a hit. Of some 83,000 tested, about 20% had one in any assay.
For each entry below, report its growth value.
Numbers only, in %.

INSERT INTO results (chemical_smiles, quantitative_readout) VALUES
  ('Cc1nc2nc(SCC(=O)O)[nH]c2c(=O)[nH]1', 97.2);

Give growth for all compounds that follow.
1. Cc1ccc(/C=C2\Oc3ccc(O)c(O)c3C2=O)cc1
2. Nc1nn(C(=O)Nc2ccc(Cc3ccccc3)cc2)c2ccc(Cl)cc12

Given back:
[43.1, 55.9]

* * *

Tested on: SNB-19 CNS
Assay: NCI-60 one-dose screen, 48 h
Settings: 10 µM unless noted
This is part of a sample that, as a whole, favours compounds with a hit. Of some 83,000 tested, about 20% had one in any assay. Activity calls are given as the source filed them. How the source made its calls: active means growth percent below 10; inactive means the rest.
Bench note: report the call from active, inactive

Sample answers from the record:
INSERT INTO results (compound, answer_label) VALUES
  ('Cc1nc2ccccc2c(/C=C/c2ccccc2)c1C(=O)/C=C/c1ccc(C(F)(F)F)cc1', 'active'),
  ('O=C(COc1ccc(/C=C2\Cc3ccc(Cl)cc3C2=O)cc1)Nc1nc2ccccc2s1', 'inactive'),
  ('Cc1c(C(=O)NCCN2CCOCC2)cn2ncnc(Oc3ccc(NC(=O)Nc4ccc(Cl)c(C(F)(F)F)c4)cc3)c12', 'inactive'),
  ('CC(C)C(=O)Nc1ccc(-c2nc(-c3cccc(OCCN4CCOCC4)c3)c(-c3ccnc(Br)c3)[nH]2)cc1', 'inactive'),
  ('O=C(O)C(c1ccccc1)N1C(=O)CSC1=S (stereo not given)', 'inactive');

Asked: Test call for this compound, please: `Brc1ccc2[nH]cc(-c3nc(-c4c[nH]c5ccncc45)cs3)c2c1`
Given back: active

Asked: Could you do the same for Cc1ccc(C(=O)NN2C(=O)CSC2c2ccc(Cl)cc2)cn1 (stereo not given) , please?
Given back: inactive

Asked: Continue with `Cc1ncc(C(=O)Nc2ccc(CN3CCN(C)CC3)c(C(F)(F)F)c2)cc1C#Cc1ccc(N)nc1`
Given back: inactive

Asked: Cool, now COc1ccc(C2NC(=O)C(C#N)c3c2sc2c(F)cccc32)c(OC)c1 (stereo not given)
Given back: inactive

Asked: Next compound: `CN(C)CCS(=O)(=O)Nc1cc(-c2ccc3ncc(C#N)c(Nc4ccc(F)c(Cl)c4)c3c2)cnc1Cl`
Given back: active

* * *

Test system: K-562 leukemia
Test: NCI-60 one-dose screen, 48 h (100 = growth as untreated, 0 = no growth, -100 = all killed)
Settings: 10 µM unless noted
The panel holds about 83,000 compounds, 20% with a hit somewhere; the sample as a whole holds those more often.
# if measured growth < 20%: criterion met  # else: criterion not met

Asked: Dear reviewer, please state whether `CC(C)OC(=O)Nc1ccc(-c2nc(-c3cccc(OCCN4CCOCC4)c3)c(-c3ccnc(Br)c3)[nH]2)cc1` has growth strictly beneath 20%.
Given back: criterion met

Asked: Also, `c1ccc2cc(C[n+]3ccn(CCCCCCn4cc[n+](Cc5ccc6ccccc6c5)c4)c3)ccc2c1` please.
Given back: criterion not met

Asked: Next up: `Cc1nc2ccccc2c(/C=C/c2ccc(Cl)cc2)c1C(=O)/C=C/c1cccs1`
Given back: criterion not met

Asked: Another compound to check: `COc1ccc(-c2nc3sc(-c4ccc(Cl)cc4)cn3n2)cc1`
Given back: criterion not met

Asked: Try this compound next: `O=C(Oc1cccc2ccccc12)Oc1cccc2ccccc12`
Given back: criterion not met

Asked: Also check `COc1cc2cc(Oc3ccc(NC(=O)Nc4ccc(F)c(C(F)(F)F)c4)cc3)c(C)nc2cc1OCCN1CCOCC1`
Given back: criterion met

Asked: Repeat with `N#Cc1c(-c2ccccc2)nc(SCC(=O)Nc2nc(-c3ccc(Cl)cc3)cs2)[nH]c1=O`
Given back: criterion not met

Asked: What about `COc1cc(C(=O)c2cc(C)c3[nH]c4ccc(O)cc4c3c2C)cc(OC)c1OC` ?
Given back: criterion met

Asked: Okay, and `Cc1ccc(C(=O)N/N=C/c2cccc(Oc3ccccc3)c2)cn1` ?
Given back: criterion not met

Asked: Lookup `O=c1c2cc(F)ccc2sc2c(NCCCNCCO)nc3ccc(F)cc3c12`
Given back: criterion met

Asked: Also `COc1ccc2c(c1)c(-c1ccc(-c3cn(C)c4ccc(OC)cc34)o1)cn2C` ?
Given back: criterion met

Asked: Okay, and O=C(O)C(c1ccccc1)N1C(=O)CSC1=S (stereo not drawn) ?
Given back: criterion not met

Asked: // next record `O=C(N=c1oc2ccccc2cc1-c1cc2ccccc2[nH]1)Nc1ccc(Cl)cc1`
Given back: criterion not met

* * *

System: OVCAR-5 ovarian
Assay: NCI-60 one-dose screen, 48 h
Settings: 10 µM unless noted
Compounds without any hit were thinned out: in the full panel of roughly 83,000, 20% have a hit. Active and inactive are the calls of the source. Rule for the calls: active = growth percent below 10; inactive = the rest.
Please reply with one of these outcomes: t (active), f (inactive)

Worked examples follow.
INSERT INTO assay_data (compound, answer_label) VALUES
  ('Cc1cccc2c3c(sc12)C(c1ccc(Cl)cc1)C(C#N)=C(N)O3 (centres undefined)', 'f'),
  ('CN1CCN(c2ccc(-c3cnc4c(-c5csc6ccccc56)cnn4c3)cc2)CC1', 't'),
  ('CCCCC[C@H](O)C/C=C1/C(=O)C=C[C@@H]1C/C=C\CCCC(=O)O', 'f');

Asked: What was the test verdict on `Cc1ccc(NC2=C(Cl)C(=O)c3nc(C)ccc3C2=O)cc1` ?
Given back: t

Asked: Same again, this time with `O=C(Nc1ccc(I)cc1F)c1cc(I)ccc1O`
Given back: f

Asked: And the next one, CC1=C(SCCC(=O)OC(C[Se]C2=C(C)C(=O)c3ccccc3C2=O)C(=O)NC(C)(C)C)C(=O)c2ccccc2C1=O (centres undefined) ?
Given back: t

Asked: And the next one, CN1C(=O)N(C)C2Nn3c(s/c(=C\c4ccccc4)c3=O)=NC21 (centres undefined) ?
Given back: f

Asked: Okay, and `CN(C)c1ccc2nc3ccc(=[N+](C)C)c([N+](=O)[O-])c-3sc2c1` ?
Given back: t

Asked: Another compound: CC(C)(C)NC(=O)C(OC(=O)c1cccc(Cl)c1)c1ccc(Cl)cc1 (centres undefined)
Given back: f

Asked: Ok, now `CS(=O)(=O)Nc1cc(-c2ccc3ncnc(Nc4cccc(Cl)c4F)c3c2)cnc1Cl`
Given back: f

Asked: Again, but for `COc1ccc(NC2=C(Br)C(=O)C(C)=C(C)C2=O)cc1`
Given back: f

Asked: Another compound: `c1ccc(Cc2nn3cc(-c4ccccc4)nc3s2)cc1`
Given back: f

* * *

System: OVCAR-3 ovarian
Assay: NCI-60 one-dose screen, 48 h
Conditions: 10 µM unless noted
This is part of a sample that, as a whole, favours compounds with a hit. Of some 83,000 tested, about 20% had one in any assay. Activity calls are given as the source filed them. Rule for the calls: active = growth percent below 10; inactive = the rest.
Just give me one of these, please: active, inactive

A selection of reference data follows.
INSERT INTO assay_data (compound, answer_label) VALUES
  ('COc1ccn2c(C(C)=O)cc(C(=O)c3ccc4c(c3)Sc3ccccc3N4)c2c1', 'active'),
  ('CCN1C(=O)N(CC)C2Nn3c(s/c(=C4\C(=O)N(CCC(C)C)c5ccccc54)c3=O)=NC21 (stereo unspecified)', 'inactive'),
  ('COc1cc2cc(Oc3ccc(NC(=O)Nc4ccc(F)c(C(F)(F)F)c4)cc3)c(C)nc2cc1OCCN1CCOCC1', 'inactive'),
  ('CCOC(=O)Cn1c(=O)c2c(c3ccccc3n2C)n2nnc(-c3ccccc3)c12', 'inactive'),
  ('COc1ccc(C2C(N)=NNC2c2cccc(O)c2)cc1 (stereo unspecified)', 'inactive');

API: the following record is the query input.
Asked: Kindly provide the recorded test outcome for the following compound: `CCCCCCNC(=O)Oc1ccc(/C(=C(\C)c2ccc(OC)cc2)c2ccc(OCCN3CCCCC3)cc2)cc1`
Given back: inactive

* * *

Hi there, I'd appreciate the recorded growth for every entry that follows.
System: OVCAR-3 ovarian
Test: NCI-60 one-dose screen, 48 h (100 = growth as untreated, 0 = no growth, -100 = all killed)
Settings: 10 µM unless noted
About 83,000 compounds went through this panel and 20% of them were active in at least one assay; those are over-represented in the sample as a whole. Activity calls are given as the source filed them. Rule for the calls: active = growth percent below 10; inactive = the rest.

Reference set, count: 4
INSERT INTO measurements (molecule, property_label, result) VALUES
  ('CCc1cccc2c3c(sc12)C(c1ccc(Cl)cc1)C(C#N)=C(N)O3 (centres undefined)', 'growth', '2.19% (active)'),
  ('Cc1cccc2c1S/C(=C/c1ccc([N+](=O)[O-])cc1)C2=O', 'growth', '105% (inactive)'),
  ('CCCCCCCNC(=O)CCCNc1ncnc2c1ncn2-c1cccc(C(C)O)c1 (centres undefined)', 'growth', '87.1% (inactive)'),
  ('Nc1nc(-c2cccc3ccccc23)cc2ccccc12', 'growth', '-32.2% (active)');

Each molecule below has a recorded value; state its growth.
1. COc1cc(C2CC(c3ccc(N(C)C)cc3)=NN2C(C)=O)cc(OC)c1OC (centres undefined)
2. Cc1ccc(-c2nn(C)c(=O)c3noc(-c4ccc(C)cc4)c23)cc1
3. O=C(CS(=O)c1oc(-c2cccs2)nc1S(=O)(=O)c1ccc(Br)cc1)c1ccccc1 (centres undefined)

Given back:
-38.2% (active)
8.74% (active)
103% (inactive)
